// values below are reported residual activity
Target: GSG2 (human) (UniProt Q8TF76)
Sequence (Q8TF76 whole entry, looked up): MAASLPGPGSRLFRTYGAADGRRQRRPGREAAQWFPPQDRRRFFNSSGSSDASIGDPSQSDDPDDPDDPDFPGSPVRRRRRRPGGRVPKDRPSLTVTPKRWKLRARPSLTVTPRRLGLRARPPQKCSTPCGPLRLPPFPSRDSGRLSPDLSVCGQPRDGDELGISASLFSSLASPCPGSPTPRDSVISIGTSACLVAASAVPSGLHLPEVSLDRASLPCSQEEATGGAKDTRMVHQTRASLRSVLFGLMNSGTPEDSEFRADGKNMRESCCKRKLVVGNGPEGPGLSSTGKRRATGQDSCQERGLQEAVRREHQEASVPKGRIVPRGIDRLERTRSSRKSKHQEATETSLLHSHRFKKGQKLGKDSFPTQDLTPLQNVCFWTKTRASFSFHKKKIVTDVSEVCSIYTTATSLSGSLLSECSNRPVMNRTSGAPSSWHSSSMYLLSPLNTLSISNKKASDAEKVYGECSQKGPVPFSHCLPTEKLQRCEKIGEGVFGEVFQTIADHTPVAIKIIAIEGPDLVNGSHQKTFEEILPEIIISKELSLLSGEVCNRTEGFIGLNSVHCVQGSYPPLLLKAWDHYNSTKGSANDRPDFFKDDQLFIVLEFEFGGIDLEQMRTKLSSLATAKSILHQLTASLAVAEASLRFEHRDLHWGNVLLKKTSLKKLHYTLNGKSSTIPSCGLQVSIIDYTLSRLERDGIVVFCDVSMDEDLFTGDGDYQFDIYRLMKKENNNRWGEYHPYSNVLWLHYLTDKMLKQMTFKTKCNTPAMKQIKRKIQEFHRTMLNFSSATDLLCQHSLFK
Experiment: radiometric filter-binding kinase assay, Kinase HotSpot
Details: compound 0.5 µM; ATP 10 µM
Kindly provide the numeric value in % only, without the unit symbol.

Nc1nnc2[nH]c3ccccc3nc1-2 = 82.1

Looking up "CN(C)C[C@H]1CCn2c(c(C3=C(c4cn(C)c5ccccc45)C(=O)NC3=O)c3ccccc32)C1" , I found its residual activity recorded as 100

Looking up "COc1cc2ncc(-c3ccccc3)nc2cc1OC" , I found its residual activity recorded as 92.1

Looking up "O=C1NC(=O)/C(=C\c2ccc3nccnc3c2)S1" , I found its residual activity recorded as 38.8

Looking up "COc1ccc(CNC(=O)Nc2ncc([N+](=O)[O-])s2)cc1" , I found its residual activity recorded as 90

Looking up "O=C(O)/C=C/c1cc(Br)c(Br)c(Br)c1Br" , I found its residual activity recorded as 88.4

Looking up "COc1cc2ncnc(N3CCN(C(=O)Nc4ccc(Oc5ccccc5)cc4)CC3)c2cc1OC" , I found its residual activity recorded as 93.2

Looking up "O=C(CCCc1ccc(-c2ccccc2F)cc1)Nc1ccc(O)cc1" , I found its residual activity recorded as 94.7

Looking up "Cn1nc2c3c(cccc31)C(=O)c1ccccc1-2" , I found its residual activity recorded as 53.1

Looking up "CC(C)c1nn(-c2c(Cl)cccc2Cl)c2nc(Cc3ccc(OCCO)cc3)nc(O)c12" , I found its residual activity recorded as 94.3

Looking up "O=C1NC(=O)C(c2c[nH]c3ccccc23)=C1c1c[nH]c2ccccc12" , I found its residual activity recorded as 84.7

Looking up O=C1Nc2ccccc2/C1=C1/Nc2ccccc2/C1=N\OCCC(O)CO (stereo not drawn) , I found its residual activity recorded as 32.8

Looking up "CCN(CC)CCCCN1c2ccccc2Oc2ccc(Cl)cc21" , I found its residual activity recorded as 104

Looking up "O=C(Nc1cccc(Nc2cc(Nc3cccc(C(F)(F)F)c3)ncn2)c1)C1CC1" , I found its residual activity recorded as 96.4

Looking up "Cn1cnc2cc3c(Nc4cccc(Br)c4)ncnc3cc21" , I found its residual activity recorded as 89.4

Looking up "Cc1nc2cc3nc(-c4cccs4)cnc3cc2n1C" , I found its residual activity recorded as 108

Looking up "Cn1sc(=O)n(Cc2ccccc2)c1=O" , I found its residual activity recorded as 99

* * *

Biological target: JAK3 JH1 JH2 (human)
Assay: radiometric filter-binding kinase assay, Kinase HotSpot
Details: compound 0.5 µM; ATP 10 µM
Test readout: residual activity (%)
Kindly provide the numeric value in % only, without the unit symbol.

Nc1nccc(-c2c(-c3ccc(F)cc3)ncn2C2CCNCC2)n1 = 96.9
CN(C)C[C@H]1CCn2c(c(C3=C(c4cn(C)c5ccccc45)C(=O)NC3=O)c3ccccc32)C1 = 89.4

Looking up "O=C(CCCc1ccc(-c2ccccc2F)cc1)Nc1ccc(O)cc1" , I found its residual activity recorded as 92.1

Looking up "O=C1Cc2c([nH]c3ccc(Br)cc23)-c2ccccc2N1" , I found its residual activity recorded as 103

Looking up "O=C1Nc2ccccc2/C1=C1\Nc2ccccc2\C1=N/O" , I found its residual activity recorded as 51.5

Looking up "COc1cc2ncnc(N3CCN(C(=O)Nc4ccc(Oc5ccccc5)cc4)CC3)c2cc1OC" , I found its residual activity recorded as 107

Looking up "Cn1sc(=O)n(Cc2ccccc2)c1=O" , I found its residual activity recorded as 106

Looking up "COc1ccc(CNC(=O)Nc2ncc([N+](=O)[O-])s2)cc1" , I found its residual activity recorded as 105

Looking up "Nc1nnc2[nH]c3ccccc3nc1-2" , I found its residual activity recorded as 68

Looking up O=C1Nc2ccccc2/C1=C1/Nc2ccccc2/C1=N\OCCC(O)CO (stereo unspecified) , I found its residual activity recorded as 16.9

Looking up "COc1ccc(OC)c2c(=S)c3ccccc3[nH]c12" , I found its residual activity recorded as 96.7

* * *

Target: EPHB4 (human)
Test: radiometric filter-binding kinase assay, Kinase HotSpot
Settings: compound 0.5 µM; ATP 10 µM
// values below are reported residual activity
Kindly provide the numeric value in % only, without the unit symbol.

Known residual activity results, listed for orientation:
O=C1NC(=O)C(c2cn(CCCO)c3ncccc23)=C1c1cnccn1 = 95.2
O=C(O)/C=C/c1cc(Br)c(Br)c(Br)c1Br = 81.2
O=C(Nc1cccc(Nc2cc(Nc3cccc(C(F)(F)F)c3)ncn2)c1)C1CC1 = 97.8
O=C1NC(=O)C(c2c[nH]c3ccccc23)=C1c1c[nH]c2ccccc12 = 88.5

Pending compound:
// residual activity (EPHB4 (human)) for "CN(C)C[C@H]1CCn2c(c(C3=C(c4cn(C)c5ccccc45)C(=O)NC3=O)c3ccccc32)C1" = 90.9

* * *

// values below are reported residual activity
Target: MAPK1 (human) (UniProt P28482)
Sequence (P28482 whole entry, looked up): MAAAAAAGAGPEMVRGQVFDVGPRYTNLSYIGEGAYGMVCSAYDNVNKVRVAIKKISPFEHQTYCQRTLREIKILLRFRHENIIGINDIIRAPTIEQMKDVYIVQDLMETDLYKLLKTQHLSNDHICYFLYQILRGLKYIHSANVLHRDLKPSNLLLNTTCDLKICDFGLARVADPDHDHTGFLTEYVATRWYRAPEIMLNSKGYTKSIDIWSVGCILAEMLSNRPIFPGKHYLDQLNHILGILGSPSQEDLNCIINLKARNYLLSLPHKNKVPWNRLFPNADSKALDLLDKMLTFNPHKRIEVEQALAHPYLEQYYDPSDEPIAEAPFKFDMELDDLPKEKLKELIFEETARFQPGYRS
Test: radiometric filter-binding kinase assay, Kinase HotSpot
Conditions: compound 0.5 µM; ATP 10 µM
Kindly provide the numeric value in % only, without the unit symbol.

Known residual activity results, listed for orientation:
Cc1nc2cc3nc(-c4cccs4)cnc3cc2n1C = 110
CC(C)c1nn(-c2c(Cl)cccc2Cl)c2nc(Cc3ccc(OCCO)cc3)nc(O)c12 = 91.7
O=C1NC(=O)C(c2c[nH]c3ccccc23)=C1c1c[nH]c2ccccc12 = 90.5
COc1ccc(OC)c2c(=S)c3ccccc3[nH]c12 = 91.5

Looking up "COc1cc2ncc(-c3ccccc3)nc2cc1OC" , I found its residual activity recorded as 95.6

Looking up "Nc1nnc2[nH]c3ccccc3nc1-2" , I found its residual activity recorded as 100

* * *

Molecular target: FER (human) (UniProt P16591)
Sequence (P16591 whole entry, looked up): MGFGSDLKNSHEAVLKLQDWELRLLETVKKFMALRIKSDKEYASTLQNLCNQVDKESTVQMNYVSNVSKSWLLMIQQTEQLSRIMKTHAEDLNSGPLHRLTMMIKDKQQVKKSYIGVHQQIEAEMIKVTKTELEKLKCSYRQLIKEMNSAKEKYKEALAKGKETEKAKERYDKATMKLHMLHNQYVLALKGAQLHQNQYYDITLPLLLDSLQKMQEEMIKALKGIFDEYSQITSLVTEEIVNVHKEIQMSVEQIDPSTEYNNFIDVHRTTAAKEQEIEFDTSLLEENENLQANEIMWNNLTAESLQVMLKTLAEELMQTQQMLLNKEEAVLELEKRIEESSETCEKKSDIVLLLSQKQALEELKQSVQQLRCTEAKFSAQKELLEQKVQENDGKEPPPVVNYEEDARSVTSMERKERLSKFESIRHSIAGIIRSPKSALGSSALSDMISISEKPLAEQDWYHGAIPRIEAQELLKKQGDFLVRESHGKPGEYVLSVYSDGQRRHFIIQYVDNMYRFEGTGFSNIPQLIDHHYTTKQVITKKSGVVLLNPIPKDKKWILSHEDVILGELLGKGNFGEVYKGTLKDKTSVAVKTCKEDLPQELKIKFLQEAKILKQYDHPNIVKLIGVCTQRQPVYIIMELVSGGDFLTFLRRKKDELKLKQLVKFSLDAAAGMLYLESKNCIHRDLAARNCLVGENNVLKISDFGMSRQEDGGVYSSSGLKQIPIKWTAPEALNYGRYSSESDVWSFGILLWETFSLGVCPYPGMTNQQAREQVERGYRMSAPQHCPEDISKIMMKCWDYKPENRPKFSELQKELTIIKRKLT
Test: radiometric filter-binding kinase assay, Kinase HotSpot
Settings: compound 0.5 µM; ATP 10 µM
Test readout: residual activity (%)
Kindly provide the numeric value in % only, without the unit symbol.

Known residual activity results, listed for orientation:
CC(C)c1nn(-c2c(Cl)cccc2Cl)c2nc(Cc3ccc(OCCO)cc3)nc(O)c12 = 89.4
O=C1Nc2ccccc2/C1=C1\Nc2ccccc2\C1=N/O = 67.8
O=C(O)/C=C/c1cc(Br)c(Br)c(Br)c1Br = 96.6

Looking up "Nc1nnc2[nH]c3ccccc3nc1-2" , I found its residual activity recorded as 94.4

Looking up "COc1cc2ncnc(N3CCN(C(=O)Nc4ccc(Oc5ccccc5)cc4)CC3)c2cc1OC" , I found its residual activity recorded as 99.8

Looking up "Cn1sc(=O)n(Cc2ccccc2)c1=O" , I found its residual activity recorded as 101

* * *

Target: ADRBK2 (human) (UniProt P35626)
Sequence (P35626 whole entry, looked up): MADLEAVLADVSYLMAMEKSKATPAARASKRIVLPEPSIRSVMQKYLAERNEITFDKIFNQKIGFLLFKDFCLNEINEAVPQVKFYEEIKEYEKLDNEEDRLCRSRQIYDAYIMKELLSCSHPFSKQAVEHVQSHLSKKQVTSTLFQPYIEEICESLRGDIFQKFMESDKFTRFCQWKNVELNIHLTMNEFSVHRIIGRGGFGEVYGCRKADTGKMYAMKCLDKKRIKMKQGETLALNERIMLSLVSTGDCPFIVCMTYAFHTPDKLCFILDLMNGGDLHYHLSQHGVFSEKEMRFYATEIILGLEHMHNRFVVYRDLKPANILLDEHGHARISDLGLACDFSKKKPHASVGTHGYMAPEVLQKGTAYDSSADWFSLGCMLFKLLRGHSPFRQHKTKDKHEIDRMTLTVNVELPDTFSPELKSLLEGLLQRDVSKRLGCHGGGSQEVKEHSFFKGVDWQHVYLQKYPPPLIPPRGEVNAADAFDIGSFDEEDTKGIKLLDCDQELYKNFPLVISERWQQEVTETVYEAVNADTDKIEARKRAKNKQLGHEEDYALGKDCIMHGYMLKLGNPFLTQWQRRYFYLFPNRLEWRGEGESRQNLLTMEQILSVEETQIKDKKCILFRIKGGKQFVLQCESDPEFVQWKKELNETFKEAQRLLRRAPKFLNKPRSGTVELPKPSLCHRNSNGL
Test: radiometric filter-binding kinase assay, Kinase HotSpot
Conditions: compound 0.5 µM; ATP 10 µM
Test readout: residual activity (%)
Kindly provide the numeric value in % only, without the unit symbol.

COc1ccc(OC)c2c(=S)c3ccccc3[nH]c12 = 86.5
Oc1ccc(Nc2nc(-c3ccc(Cl)cc3)cs2)cc1 = 97.6
Cn1cnc2cc3c(Nc4cccc(Br)c4)ncnc3cc21 = 89.9
COc1cc2ncc(-c3ccccc3)nc2cc1OC = 94.3

Looking up "O=C(O)/C=C/c1cc(Br)c(Br)c(Br)c1Br" , I found its residual activity recorded as 94.3

Looking up "O=C(Nc1cccc(Nc2cc(Nc3cccc(C(F)(F)F)c3)ncn2)c1)C1CC1" , I found its residual activity recorded as 103

Looking up "Cc1nc2cc3nc(-c4cccs4)cnc3cc2n1C" , I found its residual activity recorded as 99.2

Looking up "O=C1Cc2c([nH]c3ccc(Br)cc23)-c2ccccc2N1" , I found its residual activity recorded as 109

Looking up "Nc1nccc(-c2c(-c3ccc(F)cc3)ncn2C2CCNCC2)n1" , I found its residual activity recorded as 97.6

* * *

Biological target: INSR (human) (UniProt P06213)
Sequence (P06213 whole entry, looked up): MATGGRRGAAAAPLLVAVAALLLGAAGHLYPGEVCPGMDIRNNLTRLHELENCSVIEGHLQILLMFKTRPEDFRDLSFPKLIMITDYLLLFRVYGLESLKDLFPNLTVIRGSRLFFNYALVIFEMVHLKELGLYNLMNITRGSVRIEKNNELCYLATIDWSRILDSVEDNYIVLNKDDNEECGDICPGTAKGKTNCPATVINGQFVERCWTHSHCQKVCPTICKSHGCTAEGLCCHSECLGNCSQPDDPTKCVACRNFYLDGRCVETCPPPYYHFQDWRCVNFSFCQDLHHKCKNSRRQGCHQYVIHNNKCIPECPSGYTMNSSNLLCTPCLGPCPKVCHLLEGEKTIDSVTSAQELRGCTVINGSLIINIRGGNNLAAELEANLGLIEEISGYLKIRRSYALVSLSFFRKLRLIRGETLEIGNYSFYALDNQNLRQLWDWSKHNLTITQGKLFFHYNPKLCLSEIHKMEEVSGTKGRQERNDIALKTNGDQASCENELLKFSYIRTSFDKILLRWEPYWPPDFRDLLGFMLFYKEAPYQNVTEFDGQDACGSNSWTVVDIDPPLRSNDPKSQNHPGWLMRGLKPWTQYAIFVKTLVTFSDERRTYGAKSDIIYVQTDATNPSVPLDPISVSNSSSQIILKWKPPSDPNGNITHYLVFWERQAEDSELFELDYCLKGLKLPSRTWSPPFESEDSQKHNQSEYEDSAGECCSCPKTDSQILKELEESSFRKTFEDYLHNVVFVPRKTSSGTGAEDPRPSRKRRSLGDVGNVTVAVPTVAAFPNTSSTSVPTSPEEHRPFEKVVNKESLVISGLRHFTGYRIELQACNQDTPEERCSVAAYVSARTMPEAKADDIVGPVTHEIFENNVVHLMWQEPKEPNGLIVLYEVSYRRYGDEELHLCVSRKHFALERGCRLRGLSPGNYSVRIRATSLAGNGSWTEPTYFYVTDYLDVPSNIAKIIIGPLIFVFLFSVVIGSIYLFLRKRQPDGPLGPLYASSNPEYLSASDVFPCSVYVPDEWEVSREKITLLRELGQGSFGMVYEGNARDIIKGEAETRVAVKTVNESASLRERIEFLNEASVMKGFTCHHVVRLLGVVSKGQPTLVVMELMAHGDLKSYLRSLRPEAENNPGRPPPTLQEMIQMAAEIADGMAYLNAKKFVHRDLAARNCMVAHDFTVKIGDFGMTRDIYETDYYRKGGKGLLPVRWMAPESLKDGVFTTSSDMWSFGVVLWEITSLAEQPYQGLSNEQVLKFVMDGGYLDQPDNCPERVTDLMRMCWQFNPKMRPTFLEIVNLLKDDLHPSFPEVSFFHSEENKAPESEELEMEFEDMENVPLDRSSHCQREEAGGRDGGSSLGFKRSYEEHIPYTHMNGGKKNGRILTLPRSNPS
Experiment: radiometric filter-binding kinase assay, Kinase HotSpot
Details: compound 0.5 µM; ATP 10 µM
// values below are reported residual activity
Kindly provide the numeric value in % only, without the unit symbol.

Looking up "CCn1cnc2c(Nc3cccc(Cl)c3)nc(N[C@@H]3CCCC[C@@H]3N)nc21" , I found its residual activity recorded as 91.3

Looking up "COc1ccc(OC)c2c(=S)c3ccccc3[nH]c12" , I found its residual activity recorded as 102

Looking up "Cc1nc2cc3nc(-c4cccs4)cnc3cc2n1C" , I found its residual activity recorded as 99.9

Looking up "O=C1NC(=O)C(c2cn(CCCO)c3ncccc23)=C1c1cnccn1" , I found its residual activity recorded as 92.9

Looking up "CN(C)C[C@H]1CCn2c(c(C3=C(c4cn(C)c5ccccc45)C(=O)NC3=O)c3ccccc32)C1" , I found its residual activity recorded as 88

Looking up "Cn1cnc2cc3c(Nc4cccc(Br)c4)ncnc3cc21" , I found its residual activity recorded as 94.4

Looking up "CCN(CC)CCCCN1c2ccccc2Oc2ccc(Cl)cc21" , I found its residual activity recorded as 109

Looking up "O=C(CCCc1ccc(-c2ccccc2F)cc1)Nc1ccc(O)cc1" , I found its residual activity recorded as 102

Looking up "COc1cc2ncc(-c3ccccc3)nc2cc1OC" , I found its residual activity recorded as 89.1

Looking up "Oc1ccc(Nc2nc(-c3ccc(Cl)cc3)cs2)cc1" , I found its residual activity recorded as 88.9

Looking up "CC(=O)O/N=C1\C(=C2\C(=O)Nc3cc(Br)ccc32)Nc2ccccc21" , I found its residual activity recorded as 94.8
